Data provenance is patent US20230183381A1.

subjectOfTest: T1, human CD38 extracellular domain (hCD38, recombinant, with AviTag) (human, UniProt P28907 43-300)
T1 construct: also called recombinant CD38; huCD38
methodDescription: ELISA on human CD38 ECD, EC50 class
measurementKind: EC50

Anti-CD38 HC_E95A (antibody, V domains shown, Alanine variant of h18E4-19 with the parent VL) VH: EVQLLESGGGLVQPGGSLRLSCAASGFSFNNYWIIWIRQAPGKGLEWVAAIYSPSGDIKYYADWAKGRFTVSKDNSKNTVYLQMNSLRAEDTAVYYCARALSGSSYEGYFESWGQGTLVTVSS VL: DIQLTQSPSTLSASVGDRVTITCRSSQSVYGHNWLAWYQQKPGKAPKLLMYRASNLASGVPSRFSGSGSGTEFTLTISSVQPDDFATYYCQGYYSGGSYAFGGGTKVEIK
> 0.5 nM
Anti-CD38 LC_G90A (antibody, V domains shown, Alanine variant of h18E4-19 with the parent VH) VH: EVQLLESGGGLVQPGGSLRLSCAASGFSFNNYWIIWIRQAPGKGLEWVAAIYSPSGDIKYYADWAKGRFTVSKDNSKNTVYLQMNSLRAEDTAVYYCARELSGSSYEGYFESWGQGTLVTVSS VL: DIQLTQSPSTLSASVGDRVTITCRSSQSVYGHNWLAWYQQKPGKAPKLLMYRASNLASGVPSRFSGSGSGTEFTLTISSVQPDDFATYYCQAYYSGGSYAFGGGTKVEIK
0.1 to 0.5 nM
